- Tested on: CASKI
- ASSAY_PROTOCOL: Confirmatory qHTS for gynecologic anti-cancer compounds from libraries of approved drugs and bioactive compounds; note: nearly all actives have a fitted effect of over 55% in size; note: potency is the fitted concentration of half-maximal effect
- SETTINGS: gynecologic cancer cell panel viability, ATPlite luminescence, 48 h; series mostly up to 57.6 µM
Results filed as inconclusive are left out. Calls of active or inactive are those of the source. Calls come from the whole dose curve; as a rule, active = well fitted cell-killing curve with a large enough effect; inconclusive = small, poorly fitted or top-dose-only effect, or effect the other way; inactive = no such curve, though single readings can be large or run the other way.
MEASURED_PARAMETER: Potency

Worked examples, 5 compounds total:
COMPOUND	MEASURED_PARAMETER	REPORTED_RESULT
Nc1ccccc1NC(=O)c1ccc(CNc2nccc(-c3cccnc3)n2)cc1	Potency	8.63 µM (active)
CCCCN(CCCC)C(=O)CN1C[C@H](c2ccc3c(c2)OCO3)[C@@H](C(=O)O)[C@@H]1c1ccc(OC)cc1	Potency	inactive
O=c1[nH]c(=O)n([C@H]2C[C@H](O)[C@@H](CO)O2)cc1C(F)(F)F	Potency	9.68 µM (active)
COc1ccc(OC)c(-c2nnc3ccc(-c4ccc(OC)c(O[C@@H]5CCOC5)c4)nn23)c1	Potency	inactive
COc1ccc(CCC(=O)c2c(O)cc(O[C@@H]3O[C@H](CO)[C@@H](O)[C@H](O)[C@H]3O[C@@H]3O[C@@H](C)[C@H](O)[C@@H](O)[C@H]3O)cc2O)cc1O	Potency	inactive

Output reported Potency of the compound CCCC(=O)O[C@]1(C(=O)CCl)[C@@H](C)C[C@H]2[C@@H]3CCC4=CC(=O)C=C[C@]4(C)[C@@]3(F)C(=O)C[C@@]21C on CASKI.
30.6 µM (active)

Output reported Potency of the compound CN1CCN(c2cccc(Nc3nc4c(-c5ccc(S(C)(=O)=O)cc5)cccn4n3)c2)CC1 on CASKI.
inactive

Output reported Potency of the compound Cn1cc(-c2ccc3ncc(Cc4ccc5ncccc5c4)n3n2)cn1 on CASKI.
inactive

###

- System: CASKI
- ASSAY_PROTOCOL: Confirmatory qHTS for gynecologic anti-cancer compounds from libraries of approved drugs and bioactive compounds; note: nearly all actives have a fitted effect of over 55% in size; note: potency is the fitted concentration of half-maximal effect
- SETTINGS: gynecologic cancer cell panel viability, ATPlite luminescence, 48 h; series mostly up to 57.6 µM
- Description: National Center for Advancing Translational Sciences [NCATS] Assay Overview: Chemotherapeutic drug responses vary from cancer to cancer and from patient to patient. […] ATPlite is a luminescence based assay reliant on the conversion of a luciferase substrate to light in the presence of ATP. As a cytotoxic compound will suppress growth and decrease the number of cells, the concentration of ATP will decrease, and less light signal will be detected in the well. […]
Records with an inconclusive call do not appear. The source made the active and inactive calls. Calls follow the shape of the dose curve; as a rule, active = well fitted cell-killing curve with a large enough effect; inconclusive = small, poorly fitted or top-dose-only effect, or effect the other way; inactive = no such curve, though single readings can be large or run the other way.
MEASURED_PARAMETER: Potency

Worked examples, 4 compounds total:
COMPOUND	Potency
CN(C)C(CCOc1cccc2ccccc12)c1ccccc1 (stereo not given)	inactive
S=c1nc[nH]c2nc[nH]c12	4.85 µM (active)
CCCCc1nc2cc(/C=C/C(=O)NO)ccc2n1CCN(CC)CC	4.85 µM (active)
CCC1=CC2CN(C1)Cc1c([nH]c3ccccc13)[C@@](C(=O)OC)(c1cc3c(cc1OC)N(C)[C@H]1[C@@](O)(C(=O)OC)[C@H](OC(C)=O)[C@]4(CC)C=CCN5CC[C@]31[C@@H]54)C2 (stereo not given in full)	inactive

// next item, Potency requested
Tell me measured Potency for CN(C[C@@H]1COCCO1)S(=O)(=O)Nc1ccc2ccc3ncc(-c4cnn(C)c4)cc3c(=O)c2c1 please.
inactive
